[
  {
    "Molecule": "CC(C)Nc1nccc(-c2c(-c3ccc(F)cc3)nn3c2CCOC3)n1",
    "melting point": "167 to 169 °C"
  },
  {
    "Molecule": "Fc1ccc(-c2nn3c(c2-c2ccnc(NC4CCC4)n2)CCCC3)cc1",
    "melting point": "155 to 157 °C"
  },
  {
    "Molecule": "Fc1ccc(-c2nn3c(c2-c2ccnc(NC4CC4)n2)CCCC3)cc1",
    "melting point": "164 to 165 °C"
  }
]
